Recorded values, source the supplement of paper PMC8728848.

Give glycan array binding signal (z-score) for every item shown.
# measured.target: Neu5Ac(a2-6)Gal(b1-4)GlcNAc(b1-2)Man(a1-6)[GlcNAc(b1-2)Man(a1-3)]Man(b1-4)GlcNAc(b1-4)GlcNAc
# test.description: glycan array binding signal (z-score within array); higher = stronger binding
# applied.conditions: glycan notation: IUPAC condensed, linker removed
Many of the other results were omitted from the sample, so the strongest signals are more common in it than they were.
Lab note: record the figure alone, no unit after it.

Reported glycan array binding signal (z-score), binder DC-ASGPR L+GEE (Homo sapiens) (protein) MTRTYENFQYLENKVKVQGFKNGPLPLQSLLQRLRSGPCHLLLSLGLGLLLLVIICVVGFQNSKFQRDLVTLRTDFSNFTSNTVAEIQALTSQGSSLEETIASLKAEVEGFKQERQAGVSELQEHTTQKAHLGHCPHCPSVCVPVHSEMLLRVQQLVQDLKKLTCQVATLNNNGEEASTEGTCCPVNWVEHQDSCYWFSHSGMSWAEAEKYCQLKNAHLVVINSREEQNFVQKYLGSAYTWMGLSDPEGAWKWVDGTDYATGFQNWKPGQPDDWQGHGLGGGEDCAHFHPDGRWNDDVCQRPYHWVCEAGLGQTSQESH : ____
-0.328

Reported glycan array binding signal (z-score), binder RsaA-N-term (Caulobacter crescentus), P35828 (protein) MAYTTAQLVTAYTNANLGKAPDAATTLTLDAYATQTQTGGLSDAAALTNTLKLVNSTTAVAIQTYQFFTGVAPSAAGLDFLVDSTTNTNDLNDAYYSKFAQENRFINFSINLATGAGAGATAFAAAYTGVSYAQTVATAYDKIIGNAVATAAGVDVAAAVAFLSRQANIDYLTAFVRANTPFTAAADIDLAVKAALIGTILNAATVSGIGGYATATAAMINDLSDGALSTDNAAGVNLFTAYPSSGVSGSTLSLTTGTDTLTGTANNDTFVAGEVAGDGSGWSHPQFEKGG : ____
0.365

Reported glycan array binding signal (z-score), binder SLR2P3F12 (Tachypleus tridentatus), TAL2_TACTR (protein) MEKGTPPTHDSDNWMGRAKKIGNGGWNQFQFLFFDPNGYLYAVSKDKLYKASPPQSDTDNWIARATEIGSGGWSGFKSLFFHPNGYLYAVHGQRLYKALPPVSNQD : ____
1.27
